- tested-system: Recombinant SARS-CoV-2 3CL Protease (Severe acute respiratory syndrome coronavirus 2 (2019-nCoV) (SARS-CoV-2), UniProt P0DTD1)
- experimental-details: biochemical
- Format: biochemical
- condition-info: 50% SARS-CoV-2 3CL protease inhibitory concentration; read-out: IC50
recorded-endpoint: IC50

Input "Cc1cncc(-n2c(=O)c(-c3ccc(F)c(Cl)c3)c(N3CC(O)(c4ncccn4)C3)n(CC#N)c2=O)n1" . Output IC50: < 10 nM

Input "Cn1cnc(Cn2c(=O)c(-c3cccc(Cl)c3)c(N3Cc4ccccc4C3)n(CC#N)c2=O)n1" . Output IC50: > 100 nM

Input "N#CCn1c(N2CCCC2)c(-c2ccc(F)c(Cl)c2)c(=O)n(-c2cncc(Cl)c2)c1=O" . Output IC50: < 10 nM

Input Cc1cncc(-n2c(=O)c(-c3ccc(F)c(Cl)c3)c(N3CCC4(CCOC4)C3)n(CC#N)c2=O)c1 (racemic) . Output IC50: < 10 nM

Input Cc1cncc(-n2c(=O)c(Cc3cc(F)c(F)c(F)c3)c(-c3ccc(C)c(C)c3)n(C(F)C#N)c2=O)c1 (racemic) . Output IC50: > 100 nM

----------
- tested-system: Recombinant SARS-CoV-2 3CL Protease (Severe acute respiratory syndrome coronavirus 2 (2019-nCoV) (SARS-CoV-2))
- experimental-details: biochemical
- Type: biochemical
- condition-info: 50% SARS-CoV-2 3CL protease inhibitory concentration; read-out: IC50
pIC50: −log10 of the molar value.
recorded-endpoint: pIC50

# example entries with known answers
> print(dat)
                                   compound  observed.measurement
1  N#CCn1c(-c2nnc(C3CC3)s2)c(-c2ccc(F)c(Cl)c2)c(=O)n(-c2cncc(Cl)c2)c1=O [Compound I-359]                > 8.00
2  Cc1cc(-n2c(=O)c(-c3ccc(F)c(Cl)c3)c(N3CC4(CCOC4)C3)n(CC#N)c2=O)cnn1 [Compound I-188]          7.00 to 8.00
3  N#CCn1c(N2CC(C(F)(F)F)C2)c(-c2ccc(F)c(Cl)c2)c(=O)n(-c2cncc(F)c2)c1=O [Compound I-295]                > 8.00
4  N#CCn1c(N2CC3(CCOC3)C2)c(C2CCCCC2)c(=O)n(-c2cncc(Cl)c2)c1=O [Compound I-285]                < 7.00
5  N#CCn1c(N2CCOC2=O)c(-c2ccc(F)c(Cl)c2)c(=O)n(-c2cncc(Cl)c2)c1=O [Compound I-243]                < 7.00

Input N#CCn1c(N2CCC(F)(F)CC2)c(-c2ccc(F)c(F)c2)c(=O)n(-c2cncc(Cl)c2)c1=O [Compound I-401] . Output pIC50: > 8.00

Input Cc1cc(-n2c(=O)c(-c3cc(F)c(F)c(Cl)c3)c(N3CCC(C(F)(F)F)CC3)n(CC#N)c2=O)cc(=O)[nH]1 [Compound I-034] . Output pIC50: 7.00 to 8.00

----------
// values below are reported pIC50
- tested-system: Recombinant SARS-CoV-2 3CL Protease (Severe acute respiratory syndrome coronavirus 2 (2019-nCoV) (SARS-CoV-2))
- experimental-details: biochemical
- Format: biochemical
- condition-info: 50% SARS-CoV-2 3CL protease inhibitory concentration; read-out: IC50
pIC50: −log10 of the molar value.

# example entries with known answers
> print(dat)
                                    compound  observed.measurement
 1  N#CCn1c(N2CC(O)(c3ncccn3)C2)c(-c2ccc(F)c(Cl)c2)c(=O)n(-c2cncc(C(F)F)n2)c1=O                > 8.00
 2  N#CCn1c(N2C[C@@H]3CC[C@H]2C3)c(-c2ccc(F)c(Cl)c2)c(=O)n(-c2cncc(Cl)c2)c1=O (racemic)                > 8.00
 3  CCOC1CN(c2c(-c3ccc(F)c(Cl)c3)c(=O)n(-c3cncc(C(F)F)n3)c(=O)n2CC#N)C1                > 8.00
 4  CC1(O)CC2(CN(c3c(-c4ccc(F)c(Cl)c4)c(=O)n(-c4cnc5cc(Cl)ccn45)c(=O)n3CC#N)C2)C1          7.00 to 8.00
 5  N#CCn1c(N2CC3(C2)CC(F)(F)C3)c(-c2ccc(F)c(Cl)c2)c(=O)n(-c2cnc3cc(F)ccn23)c1=O                > 8.00
 6  Cc1cncc(-n2c(=O)c(-c3ccc(F)c(Cl)c3)c(-c3ccc(C(=O)OC(C)(C)C)cc3)n(CC#N)c2=O)c1                < 7.00
 7  Cc1cc(-n2c(=O)c(Cc3cc(F)c(F)c(F)c3)c(N3CC4(CCOC4)C3)n(CC#N)c2=O)cc(=O)[nH]1                < 7.00
 8  Cc1cc(-n2c(=O)c(-c3cc(F)c(F)c(Cl)c3)c(N3CC4(C3)CC(F)(F)C4)n(CC#N)c2=O)cc(=O)[nH]1                > 8.00
 9  N#CCn1c(N2CC3(C2)CC(F)(F)C3)c(-c2ccc(F)c(Cl)c2)c(=O)n(-c2cnc3cc(Cl)ccn23)c1=O                > 8.00
10  CNc1cnnc(-n2c(=O)c(-c3ccc(F)c(Cl)c3)c(N3CC4(C3)CC(F)(F)C4)n(CC#N)c2=O)c1                > 8.00

Input "N#CCn1c(N2CC3(C=C(F)C3)C2)c(-c2ccc(F)c(Cl)c2)c(=O)n(-c2cncc(Cl)c2)c1=O" . Output pIC50: > 8.00

Input "N#CCn1c(N2CC(C(F)(F)F)C2)c(-c2ccc(F)c(Cl)c2)c(=O)n(-c2cncc(Cl)c2)c1=O" . Output pIC50: 9.15

Input CC(C)(C)OC(=O)C(C#N)n1c(N2CCC(C(F)(F)F)CC2)c(-c2ccc(F)c(Cl)c2)c(=O)n(-c2cncc(Cl)c2)c1=O (racemic) . Output pIC50: 7.00 to 8.00

----------
- Test system: SARS-CoV-2
- experimental-details: Cytopathic effect (CPE) suppression effect confirmation test using HEK293T/ACE2-TMPRSS2 cells
- Type: cell-based
- condition-info: Severe acute respiratory syndrome coronavirus 2, HEK-293T, 72 h; HEK293T/ACE2-TMPRSS2 cells, CPE suppression, CellTiter-Glo 2.0 after 3 days culture; read-out: EC50 (50% SARS-CoV-2 infected cell death inhibitory concentration), class
recorded-endpoint: EC50

> print(dat)
                                   compound  recorded.endpoint  observed.measurement
1  Cc1cncc(-n2c(=O)c(Cc3cc(F)c(F)c(F)c3)c(N3CC4(CCOC4)C3)n(C(C)C#N)c2=O)c1 (racemic) [Compound I-054]               EC50              < 100 nM
2  Cc1cncc(-n2c(=O)c(-c3ccc(F)c(Cl)c3)c(N3CC4(CCOCC4)C3)n(CC#N)c2=O)n1 [Compound I-193]               EC50              < 100 nM
3  N#CCn1c(N2CC3(CCOC3)C2)c(-c2ccc(F)c(Cl)c2)c(=O)n(-c2cnc3ccccn23)c1=O [Compound I-043]               EC50        100 to 1000 nM
4  Cc1cc(-n2c(=O)c(-c3ccc(F)c(Cl)c3)c(N3CCC(C)(C)CC3)n(CC#N)c2=O)cc(=O)[nH]1 [Compound I-170]               EC50              < 100 nM

Now look at this one.
Input N#CCn1c(N2Cc3ccccc3C2)c(Cc2cc(F)c(F)c(F)c2)c(=O)n(-c2nnc3ccccn23)c1=O [Compound I-156] . Output EC50: < 100 nM

----------
- tested-system: Recombinant SARS-CoV-2 3CL Protease (Severe acute respiratory syndrome coronavirus 2 (2019-nCoV) (SARS-CoV-2))
- experimental-details: biochemical
- Type: biochemical
- condition-info: 50% SARS-CoV-2 3CL protease inhibitory concentration; read-out: IC50
// values below are reported IC50

> print(dat)
                                   compound  observed.measurement
1  N#CCn1c(N2CCC(F)(F)CC2)c(-c2cccc(Cl)c2)c(=O)n(-c2cncc(Cl)c2)c1=O               < 10 nM
2  Cc1cncc(-n2c(=O)c(-c3ccc(F)c(Cl)c3)c(-c3ccc(C4CC4)cc3)n(CC#N)c2=O)c1               < 10 nM
3  N#CCn1c(N2CCC(C(F)F)CC2)c(-c2ccc(F)c(Cl)c2)c(=O)n(-c2cncc(C#N)c2)c1=O               < 10 nM
4  Cc1cncc(-n2c(=O)c(-c3ccc(F)c(Cl)c3)c(NS(=O)(=O)c3ccccc3)n(CC#N)c2=O)c1               < 10 nM
5  N#CCn1c(Cl)c(-c2ccc(F)c(Cl)c2)c(=O)n(-c2cnc3cc(Cl)ccn23)c1=O              > 100 nM

Now look at this one.
Input "N#CCn1c(N2CC(O)(C(F)F)C2)c(-c2cc(F)c(F)c(Cl)c2)c(=O)n(-c2cncc(Cl)c2)c1=O" . Output IC50: < 10 nM
